# Tested on: RAW-Dual
# assay: IRF Lucia reporter activity, fold change vs agonist alone; cytotoxicity flag (confluency mask): not cytotoxic; higher = enhanced IRF activity
# condition-notes: agonist: 3'3'-cGAMP (STING) 10 ug/mL
The full ranking holds about 2,900 compounds; the median of “IRF Lucia reporter activity, fold change vs agonist alone” is about 0.9, and the highest 2% start at about 2.8. Many of the other results were omitted from the sample, so the highest values are more common in it than they were.
readout-kind: IRF Lucia reporter activity
Form: value (number only, do not type unit).

stdin: Return value of IRF Lucia reporter activity for input CCn1cc(C(=O)O)c(=O)c2c(N)c(F)c(NC3CCCCC3)cc21 (library stock concentration (final ~1000-fold dilution): 10 mM) , no commentary.
stdout: 0.545

stdin: Return value of IRF Lucia reporter activity for input CCOC(=O)C1=C(C)NC(C)=C(C(=O)OC)C1c1cccc(Cl)c1Cl (stereo unspecified) (library stock concentration (final ~1000-fold dilution): 10 mM) , no commentary.
stdout: 1.31

stdin: Return value of IRF Lucia reporter activity for input C[N+](C)(C)NCCC(=O)O (library stock concentration (final ~1000-fold dilution): 10 mM water) , no commentary.
stdout: 1.05

stdin: Return value of IRF Lucia reporter activity for input CC1Cc2c([nH]c3ccccc23)C(c2c(F)cc(/C=C/C(=O)O)cc2F)N1CC(C)(C)F (stereo unspecified) (library stock concentration (final ~1000-fold dilution): 10 mM) , no commentary.
stdout: 1.14

stdin: Return value of IRF Lucia reporter activity for input Cc1cc(Nc2ccc(NC(=O)c3ccc(Nc4ccnc5ccccc45)cc3)cc2)nc(N)n1 (library stock concentration (final ~1000-fold dilution): 10 mM) , no commentary.
stdout: 1.65

stdin: Return value of IRF Lucia reporter activity for input COc1ccc2c(OC3CC4C(=O)NC5(C(=O)NS(=O)(=O)C6CC6)CC5/C=C\CCCCN(C)C(=O)C4C3)cc(-c3nc(C(C)C)cs3)nc2c1C (stereo unspecified) (library stock concentration (final ~1000-fold dilution): 10 mM) , no commentary.
stdout: 1.04

stdin: Return value of IRF Lucia reporter activity for input Cl.Fc1ccc(C2CCNCC2COc2ccc3c(c2)OCO3)cc1 (stereo unspecified) (library stock concentration (final ~1000-fold dilution): 10 mM) , no commentary.
stdout: 0.928

stdin: Return value of IRF Lucia reporter activity for input CCC(C)C(=O)OC1CC(C)C=C2C=CC(C)C(CCC3CC(O)CC(=O)O3)C21 (stereo unspecified) (library stock concentration (final ~1000-fold dilution): 10 mM) , no commentary.
stdout: 0.497

stdin: Return value of IRF Lucia reporter activity for input CNCc1ccc(C)c(NC(=O)c2ccc(Nc3nc(-c4ccccc4)c4ccccc4n3)cc2)c1 (library stock concentration (final ~1000-fold dilution): 10 mM) , no commentary.
stdout: 0.995

stdin: Return value of IRF Lucia reporter activity for input Oc1cc(CNC(=S)/C=C/c2cc(O)c(O)c(Br)c2)cc(O)c1O (library stock concentration (final ~1000-fold dilution): 10 mM) , no commentary.
stdout: 0.312

stdin: Return value of IRF Lucia reporter activity for input Cc1ccc2c(=O)c3cccc(CC(=O)O)c3oc2c1C (library stock concentration (final ~1000-fold dilution): 10 mM) , no commentary.
stdout: 1.08

stdin: Return value of IRF Lucia reporter activity for input CCOC(=O)c1ccc(NC2CCCCC2)c(N)c1 (library stock concentration (final ~1000-fold dilution): 10 mM) , no commentary.
stdout: 1.04

stdin: Return value of IRF Lucia reporter activity for input C[N+]1(C)C2CCC1CC(OC(=O)C(O)c1ccccc1)C2 (stereo unspecified) (library stock concentration (final ~1000-fold dilution): 10 mM) , no commentary.
stdout: 1.01

stdin: Return value of IRF Lucia reporter activity for input COC(=O)C1=C(C)NC(C)=C(C(=O)OCC(C)C)C1c1ccccc1[N+](=O)[O-] (stereo unspecified) (library stock concentration (final ~1000-fold dilution): 10 mM) , no commentary.
stdout: 0.585

stdin: Return value of IRF Lucia reporter activity for input CCCC(=O)OCOC(=O)C1=C(C)NC(C)=C(C(=O)OC)C1c1cccc(Cl)c1Cl (stereo unspecified) (library stock concentration (final ~1000-fold dilution): 10 mM) , no commentary.
stdout: 1.02

stdin: Return value of IRF Lucia reporter activity for input Cc1c(-c2ccccc2)oc2c(C(=O)OCCN3CCCCC3)cccc2c1=O.Cl (library stock concentration (final ~1000-fold dilution): 10 mM water) , no commentary.
stdout: 1.09

stdin: Return value of IRF Lucia reporter activity for input COc1cc2c(cc1OC(C)C)C(c1ccc(Cl)cc1)N(c1ccc(N(C)CC3CCC(N4CCN(C)C(=O)C4)CC3)cc1)C(=O)C2 (stereo unspecified) (library stock concentration (final ~1000-fold dilution): 10 mM) , no commentary.
stdout: 0.135

stdin: Return value of IRF Lucia reporter activity for input CCC(NC(=O)C(C)NC)C(=O)N1CC(O)CC1Cc1c(-c2[nH]c3cc(F)ccc3c2CC2CC(O)CN2C(=O)C(CC)NC(=O)C(C)NC)[nH]c2cc(F)ccc12 (stereo unspecified) (library stock concentration (final ~1000-fold dilution): 10 mM) , no commentary.
stdout: 0.626

stdin: Return value of IRF Lucia reporter activity for input Cc1ccc(/C(=C\CN2CCCC2)c2ccccn2)cc1.Cl.O (library stock concentration (final ~1000-fold dilution): 10 mM) , no commentary.
stdout: 0.877

stdin: Return value of IRF Lucia reporter activity for input NC(=O)c1cc(F)cc2c1C(=O)N(C1CCN(C3CCC(F)(F)CC3)CC1)C2 (library stock concentration (final ~1000-fold dilution): 10 mM) , no commentary.
stdout: 0.94

stdin: Return value of IRF Lucia reporter activity for input CC(=O)Nc1ccc(C(=O)Nc2ccccc2N)cc1 (library stock concentration (final ~1000-fold dilution): 10 mM) , no commentary.
stdout: 0.557
